Value source: patent US20220079993A1

System: beige adipocytes
Experiment: Lipolysis validation assays of primary hits at three concentrations
Type: cell-based, human
Details: Homo sapiens, Adipocyte, 24 h; Conc. 6.7 µM; read-out: % of Control (4)
Structures can show the parent of a compound that is named as a salt.
quantity: activity at 6.7 µM (%)
Field format: number, assumed %, no unit text.

Worked examples follow.
> print(dat)
                                   compound  experimental.system            quantity  assay.value
1  CC(C)NCC(O)c1cc(O)cc(O)c1 (stereo not shown) [Metaproterenol Sulfate]     beige adipocytes  activity at 6.7 µM          283
2  CC(C)C[C@H](NC(=O)CNC(=O)c1cc(Cl)ccc1Cl)B1OC(=O)C(CC(=O)O)(CC(=O)O)O1     beige adipocytes  activity at 6.7 µM          115
3  O=C(Nc1c[nH]nc1-c1nc2ccc(CN3CCOCC3)cc2[nH]1)NC1CC1     beige adipocytes  activity at 6.7 µM          177
4  CCOC(=O)C1=C(C)NC(C)=C(C(=O)OC)C1c1cccc(Cl)c1Cl (stereo not shown)     beige adipocytes  activity at 6.7 µM          256
5  Nc1nc(CC(=O)Nc2ccc(CCNC[C@H](O)c3ccccc3)cc2)cs1     beige adipocytes  activity at 6.7 µM          192
6  CNC[C@H](O)c1cccc(O)c1 [Phenylephrine HCl]     beige adipocytes  activity at 6.7 µM          232

Prompt line: What value of activity at 6.7 µM has been recorded for this entry: "C[n+]1cc2c3c(ccc2c2ccc4cc5c(cc4c21)OCO5)OCO3"
Response line: 101
